Values compiled from PubChem BioAssay (NCI).

system: SK-MEL-28 melanoma; assay: NCI tumour cell line growth inhibition, 48 h
testReadout: TGI

Some solved cases for reference:
1) COc1ccc(C/C(C)=C(\c2ccc(OCCN3CCOCC3)cc2)c2ccc(OC(=O)Cc3ccccc3)cc2)cc1 | 1.06 µM
2) O=C1NCCCC12CCCNC2=O | > 100 µM
3) Cc1ccc(S(=O)(=O)NNC(=O)c2sc(-c3nc(C)c(C(=O)NNS(=O)(=O)c4ccc(C)cc4)s3)nc2C)cc1 | > 100 µM

For every listed record, write down its TGI.
1. N=c1c2c(-c3ccccc3)c(-c3ccccc3)n(Cc3ccccc3)c2ncn1CCCO
2. Nc1ncnc2c1ncn2CC(O)C(=O)O (stereo not given)

OUT:
3.4 µM
> 100 µM

For every listed record, write down its TGI.
1. COc1ccc(Cc2c(N)[nH]c(=O)n(C)c2=O)cc1
2. COc1ccc(C(=O)/C=C/c2c(C(F)(F)F)nc3sccn23)cc1OC

OUT:
> 100 µM
> 100 µM

For every listed record, write down its TGI.
1. O=C1NC(=S)NC(=O)C1C(c1ccc([N+](=O)[O-])cc1)C1C(=O)NC(=S)NC1=O
2. COc1ccc(C(Cc2cc(OC)c(OC)c(OC)c2)C(=O)O)cc1 (stereo not given)

OUT:
1. > 100 µM
2. > 100 µM

IN: For SK-MEL-28 melanoma, provide TGI of Cn1ccc2c(c1=O)C(=O)c1nccc3c1c-2nc1ccccc13 please.
OUT: 3.05 µM
